These measurements were taken from paper doi:10.1101/2025.11.06.687025v1.

molecular target: mouse serotonin 5-HT2C receptor (Mus musculus); construct: recombinant receptor stably expressed in HEK293 (HEK/5-HT2C cells); assay: Fura-2 Ca2+ imaging, fraction of responsive HEK/5-HT2C cells, Hill fit
measured.metric: pEC50
Remember, pEC50 is on a log scale: it is -log10 of the molar concentration.

Under mouse serotonin 5-HT2C receptor (Mus musculus): pEC50 value of O=c1cc(N2CCNCC2)oc2c(-c3ccccc3)cccc12 ?
5.60

====

Biological target: mouse serotonin 5-HT2C receptor (Mus musculus, UniProt P34968)
Construct: recombinant receptor stably expressed in HEK293 (HEK/5-HT2C cells)
Sequence (P34968 33-459): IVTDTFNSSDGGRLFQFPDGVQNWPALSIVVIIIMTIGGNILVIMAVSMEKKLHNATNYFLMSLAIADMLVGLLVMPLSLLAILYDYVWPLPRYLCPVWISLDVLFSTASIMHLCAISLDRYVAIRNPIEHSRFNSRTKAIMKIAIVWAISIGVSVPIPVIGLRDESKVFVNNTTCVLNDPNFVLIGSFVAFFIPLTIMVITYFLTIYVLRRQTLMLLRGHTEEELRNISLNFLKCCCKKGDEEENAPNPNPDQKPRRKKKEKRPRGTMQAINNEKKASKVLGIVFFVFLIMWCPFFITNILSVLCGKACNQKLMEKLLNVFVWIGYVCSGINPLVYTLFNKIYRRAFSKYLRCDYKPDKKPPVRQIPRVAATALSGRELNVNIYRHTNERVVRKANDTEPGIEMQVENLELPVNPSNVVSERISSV
Experiment: Fura-2 Ca2+ imaging, fraction of responsive HEK/5-HT2C cells, Hill fit
measured.metric: pIC50
pIC50 is defined as minus the log10 of a concentration measured in mol/L.

Please give the measured pIC50 for this molecule: O=c1cc(N2CCOCC2)oc2c(-c3ccccc3)cccc12 [LY294002]
5.92
